- Tested on: L1210 leukemia ip in BDF1 mice, survival T/C
- Test: NCI In Vivo Anticancer Drug Screen. Data for tumor model L1210 Leukemia (intraperitoneal) in B6D2F1 (BDF1) mice
- Experimental parameters: endpoint: mean survival time; dose: 400.0 mg/kg/injection; schedule: Q04DX003 (ip); vehicle: other; higher = longer survival
Toxic doses and inconclusive results are not listed.
Experimental endpoint: T/C

Query: May I ask what T/C has been recorded for O=C(N/N=C/c1ccccc1)c1ccc(Cl)c(Cl)c1 ?
Result: 89 % of control

Query: # iterate: CNC(=O)N(CCC#N)C1CCCCC1
Result: 96 % of control

Query: # iterate: Cc1nc(N)nc(C)c1N=Nc1ccc(Br)cc1
Result: 100 % of control

Query: # iterate: [N-]=[N+]=N/C(=C\c1ccccc1)C(=O)c1ccccc1
Result: 91 % of control

Query: # iterate: Cc1ccc(C)c(Nc2nc(Cl)nc3ncn(C)c23)c1
Result: 110 % of control

Query: # iterate: CCCCCCCCCCCC(=O)O.[Cr]
Result: 91 % of control

Query: # iterate: CC(/C=N/NC(=O)NO)=N\NC(=O)NO
Result: 98 % of control

Query: # iterate: CC1CC(C)(C)N=C(CCC[N+](=O)[O-])O1 (stereo not drawn)
Result: 88 % of control

====

- Tested on: L1210 leukemia ip in BDF1 mice, survival T/C
- Test: NCI In Vivo Anticancer Drug Screen. Data for tumor model L1210 Leukemia (intraperitoneal) in B6D2F1 (BDF1) mice
- Experimental parameters: endpoint: mean survival time; dose: 400.0 mg/kg/injection; schedule: Q01DX009 (ip); vehicle: Klucel (hydroxypropylcellulose) (HPC); higher = longer survival
Toxic doses and inconclusive results are not listed.
Answer each item with its documented T/C.

Query: May I ask what T/C has been recorded for COc1ccc(C2NC(=O)c3ccccc3N2)c(OC)c1OC (configuration not stated) ?
Result: 106 % of control

Query: # iterate: CCOC(=O)C(C)(C)CCl
Result: 103 % of control

Query: # iterate: COc1cc2c(cc1OC)C(CNC(=O)/C=C/c1ccccc1)C2 (configuration not stated)
Result: 95 % of control

Query: # iterate: Cc1noc(NC(=O)Nc2ccccc2C(F)(F)F)c1C
Result: 101 % of control

Query: # iterate: CCc1ccccc1NC(=O)Nc1ccc(Cl)c(Cl)c1
Result: 88 % of control

Query: # iterate: O=C(O)C1OC(Oc2ccc3oc4ccccc4c(=O)c3c2)C(O)C(O)C1O (configuration not stated)
Result: 111 % of control

Query: # iterate: CC(C)=C1C2CCC1C(COS(=O)(=O)c1ccc(C)cc1)C2COS(=O)(=O)c1ccc(C)cc1 (configuration not stated)
Result: 94 % of control

Query: # iterate: Nc1ccc(S(=O)(=O)Nc2cccc3ccccc23)cc1
Result: 101 % of control

Query: # iterate: Cc1ccc(S(=O)(=O)Nc2ccccc2OS(=O)(=O)c2ccc(C)cc2)cc1
Result: 106 % of control

Query: # iterate: CCOC(=O)CCC1(CCC(=O)OCC)c2ccccc2-c2ccccc21
Result: 94 % of control

Query: # iterate: Cc1ccccc1SC(=O)Nc1ccc([N+](=O)[O-])cc1Cl
Result: 94 % of control

Query: # iterate: CCOc1ccc([N+](=O)[O-])cn1
Result: 106 % of control

====

- System: L1210 leukemia ip in BDF1 mice, survival T/C
- Test: NCI In Vivo Anticancer Drug Screen. Data for tumor model L1210 Leukemia (intraperitoneal) in B6D2F1 (BDF1) mice
- Experimental parameters: endpoint: mean survival time; dose: 100.0 mg/kg/injection; schedule: Q01DX009 (ip); vehicle: Klucel (hydroxypropylcellulose) (HPC); higher = longer survival
Toxic doses and inconclusive results are not listed.
Answer each item with its documented T/C.

Query: May I ask what T/C has been recorded for CC(C)(C)c1ccc(OC(=O)Nc2ccc(Cl)cc2[N+](=O)[O-])c(Br)c1 ?
Result: 98 % of control

Query: # iterate: CC(=O)Nc1ccc(NC(=O)/C=C/c2ccccc2)cc1
Result: 103 % of control

Query: # iterate: O=C1c2ccccc2C(=O)N1SN1C(=O)c2ccccc2C1=O
Result: 97 % of control

Query: # iterate: CCc1cc(C)cc(CC)c1N
Result: 104 % of control

Query: # iterate: CCCCC(O)CCC (configuration not stated)
Result: 96 % of control

Query: # iterate: CCOC(=O)c1ccc(NC(=O)Oc2ccccc2OCC)cc1
Result: 97 % of control

Query: # iterate: Cc1cc2[nH]c(=O)c(=O)[nH]c2cc1C
Result: 105 % of control

Query: # iterate: CC(=O)Nc1ccc(/C=N/NC(=O)COCC(=O)N/N=C/c2ccc(NC(C)=O)cc2)cc1
Result: 91 % of control

Query: # iterate: Cc1ccc(S(=O)(=O)N/N=C/N(C)C)cc1
Result: 91 % of control

Query: # iterate: CC(=O)NCc1cc(C)c(C)cc1C
Result: 100 % of control

Query: # iterate: CCOC(=O)c1ccc(NC(=O)Oc2ccc(OC)cc2)cc1
Result: 96 % of control

Query: # iterate: COc1ccccc1C(CC(=O)c1ccccc1)Sc1ccccc1N (configuration not stated)
Result: 93 % of control

====

- Tested on: L1210 leukemia ip in BDF1 mice, survival T/C
- Test: NCI In Vivo Anticancer Drug Screen. Data for tumor model L1210 Leukemia (intraperitoneal) in B6D2F1 (BDF1) mice
- Experimental parameters: endpoint: mean survival time; dose: 400.0 mg/kg/injection; schedule: Q04DX003 (ip); vehicle: saline with Tween-80; higher = longer survival
Toxic doses and inconclusive results are not listed.
Answer each item with its documented T/C.

Query: May I ask what T/C has been recorded for CC(CC(=O)O)NC(=O)OCc1ccccc1 (stereo not given) ?
Result: 97 % of control

Query: # iterate: CC(=O)Nc1ccc(C)c2ccccc12
Result: 96 % of control

Query: # iterate: CCN(CC)C(=O)Cn1ccc(O)cc1=O
Result: 104 % of control

Query: # iterate: CCCCCC/C(C)=N/O
Result: 98 % of control

Query: # iterate: CCCCC(O)CCC (stereo not given)
Result: 98 % of control

Query: # iterate: N#C/C(=C\c1ccncc1)c1csc2ccccc12
Result: 94 % of control

Query: # iterate: CC(=O)Oc1cc(C(c2ccccc2)c2ccccc2)ccc1N(C(C)=O)S(=O)(=O)c1ccccc1
Result: 92 % of control

Query: # iterate: O=[N+]([O-])c1ccc2c(c1)COCO2
Result: 97 % of control

Query: # iterate: CCC(C)NC(=O)Oc1cccc(NC(=O)N(C)C)c1 (stereo not given)
Result: 90 % of control

Query: # iterate: O=C(COc1ccccc1[N+](=O)[O-])Nc1cccnc1
Result: 98 % of control

Query: # iterate: CCOc1ccc(CO)cc1
Result: 89 % of control

Query: # iterate: N#CC(=C1C=CC(=NO)C=C1)c1ccc(Cl)cc1
Result: 91 % of control

Query: # iterate: CCOC(=O)c1cnc(SC)nc1NCc1ccco1
Result: 92 % of control

Query: # iterate: CCNC(=O)CS(=O)(=O)c1ccc(C)cc1
Result: 97 % of control

Query: # iterate: COC(=O)C(CSCSC)NC(=O)NC1CCCCC1 (stereo not given)
Result: 91 % of control

Query: # iterate: O=C1c2ccccc2C(=O)N1Cc1ccccc1
Result: 96 % of control

Query: # iterate: CCCNC(=O)Nc1cc(Cl)ccc1OC
Result: 94 % of control

Query: # iterate: CC12C(=O)OC(=O)C1C1C=CC2CC1 (stereo not given)
Result: 101 % of control

Query: # iterate: CCOC(=O)C(C(=O)OCC)C(=O)c1cccc2ccc3ccccc3c12
Result: 97 % of control

Query: # iterate: C=C(C=O)C1CCC2=C(CCC3(C)C(C(C)CCCC(C)C)CCC23C)C1(C)CCC#N (stereo not given)
Result: 93 % of control

Query: # iterate: CCC(C)COC(=O)Nc1cccc(OC(=O)NC)c1 (stereo not given)
Result: 102 % of control

Query: # iterate: Cc1ccc(NC(=O)Oc2ccc(Br)cc2Br)c(Cl)c1
Result: 103 % of control

Query: # iterate: Cc1ccc(C(=O)CCC(=O)O)cc1
Result: 94 % of control

Query: # iterate: CN(C)/N=C/c1ccccc1C(=O)O
Result: 106 % of control

Query: # iterate: O=C1CCCc2c1[nH]c1ccccc21
Result: 98 % of control

Query: # iterate: NNc1ccc(-c2ccc(NN)cc2)cc1
Result: 98 % of control

Query: # iterate: COC1=CC2C3=C(C(NC=O)CCc4cc(O)c(OC)c(OC)c43)C2C1=O (stereo not given)
Result: 108 % of control

Query: # iterate: O=C(CC(O)(C(F)(F)F)C(F)(F)F)c1ccccc1Br
Result: 95 % of control

Query: # iterate: CC(=O)n1cc(C2CC(=O)OC3=C2CC(=O)C(C)(C)C3)c2ccccc21 (stereo not given)
Result: 101 % of control

Query: # iterate: NC(=O)CCC(N)C(=O)O (stereo not given)
Result: 96 % of control

Query: # iterate: O=[N+]([O-])c1ccc(Cc2ccc([N+](=O)[O-])cc2)cc1
Result: 98 % of control

Query: # iterate: COC(=O)C1CC(OS(=O)(=O)c2ccc(C)cc2)CN1C(=O)OCc1ccccc1 (stereo not given)
Result: 92 % of control

Query: # iterate: CCCCCCCCCCOc1ccc(OCCCCCCCCC)cc1
Result: 87 % of control

Query: # iterate: O=C1Nc2ccccc2/C1=N/N=C/c1cc(Cl)cc(Cl)c1O
Result: 91 % of control

Query: # iterate: Cc1cccc(C)c1NC(=O)C(C)C
Result: 96 % of control

Hey, just so you know, these numbers are from PubChem BioAssay AID248.
